Assay: Selectivity for bovine retina PDE6 to canine lung PDE5
PROPERTY_NAME: Selectivity ratio

Use the examples below as a reference point.
INSERT INTO measurements (substance_smiles, property_name, val) VALUES
  ('COc1ccc(Cn2c(=O)cc(-c3ccccn3)c3cnc(N4CCC[C@H]4CO)nc32)cc1Cl', 'Selectivity ratio', 1900),
  ('COc1ccc(Cn2c(=O)cc(CCN3CCOCC3)c3cnc(N4CCC[C@H]4CO)nc32)cc1Cl', 'Selectivity ratio', 1600);

I = COc1ccc(Cn2c(=O)ccc3cnc(N4CCC[C@H]4CO)nc32)cc1Cl
II = COc1ccc(Cn2c(=O)cc(C)c3cnc(N4CCC[C@H]4CO)nc32)cc1Cl
Query: Would you let me know which has the greater Selectivity ratio value, I or II ? Your choice should be expressed through its label.
Reply: II
(II: 2300, I: 850)

---

Entries with reported IC50 on cGMP-specific 3',5'-cyclic phosphodiesterase (Canis lupus familiaris)
PROPERTY_NAME: IC50 (nM)

INSERT INTO results (substance_smiles, property_name, value_units, val) VALUES
  ('COc1ccc(CNc2nc(N3CCC[C@H]3CO)ncc2C(=O)c2ccccn2)cc1Cl', 'IC50', 'nM', 12),
  ('COc1ccc(CNc2nc(N3CCC[C@H]3CO)ncc2C(=O)CCN2CCOCC2)cc1Cl', 'IC50', 'nM', 2.9),
  ('COc1ccc(CNc2nc(N3CCC[C@H]3CO)ncc2C(C)=O)cc1Cl', 'IC50', 'nM', 5.2);

1 = COc1ccc(Cn2c(=O)cc(-c3nccn3C)c3cnc(N4CCC[C@H]4CO)nc32)cc1Cl
2 = COc1ccc(CNc2nc(N3CCC[C@H]3CO)ncc2C(=O)c2cc(OC)c(OC)c(OC)c2)cc1Cl
Query: Param metric = IC50; output whichever of 1 , 2 has the minimum value. Your choice should be expressed through its label.
Reply: 2
(2: 0.21 nM, 1: 7.2 nM)

P = COc1ccc(CNc2nc(N3CCC[C@H]3CO)ncc2C(=O)c2nccn2C)cc1Cl
Q = COc1ccc(Cn2c(=O)ccc3cnc(N4CCC[C@H]4CO)nc32)cc1Cl
Query: Would you let me know which has the greater IC50 value, P or Q ? Your choice should be expressed through its label.
Reply: P
(P: 12 nM, Q: 3.3 nM)
